# TARGET_ENTITY: PRMT8 (Homo sapiens, UniProt Q9NR22)
# Sequence (Q9NR22 whole entry): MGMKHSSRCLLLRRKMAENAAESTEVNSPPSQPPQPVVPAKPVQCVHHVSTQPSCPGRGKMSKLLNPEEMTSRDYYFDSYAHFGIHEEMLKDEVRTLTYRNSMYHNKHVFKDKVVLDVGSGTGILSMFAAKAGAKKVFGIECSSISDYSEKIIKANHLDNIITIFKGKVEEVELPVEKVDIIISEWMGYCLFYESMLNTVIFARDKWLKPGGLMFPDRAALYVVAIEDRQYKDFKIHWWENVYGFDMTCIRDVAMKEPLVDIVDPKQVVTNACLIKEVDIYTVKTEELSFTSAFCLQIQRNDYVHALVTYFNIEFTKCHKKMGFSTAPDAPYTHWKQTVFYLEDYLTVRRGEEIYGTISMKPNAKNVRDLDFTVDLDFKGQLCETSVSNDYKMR
# METHOD_NOTES: PRMT panel selectivity test, PRMT8
# Format: biochemical
pIC50: −log10 of the molar value.
ASSAY_ENDPOINT: pIC50

CCOCC1(COCC)CCC(c2cccnc2CN(C)CCNC)CC1 [P207]    > 7.30

Could you tell me which pIC50 is on file for CNCCN(C)Cc1ncccc1N1CCc2ccccc2CC1 [P118] ?
> 7.30

---

# TARGET_ENTITY: PRMT1 (Homo sapiens, UniProt Q99873)
# Sequence (Q99873 whole entry): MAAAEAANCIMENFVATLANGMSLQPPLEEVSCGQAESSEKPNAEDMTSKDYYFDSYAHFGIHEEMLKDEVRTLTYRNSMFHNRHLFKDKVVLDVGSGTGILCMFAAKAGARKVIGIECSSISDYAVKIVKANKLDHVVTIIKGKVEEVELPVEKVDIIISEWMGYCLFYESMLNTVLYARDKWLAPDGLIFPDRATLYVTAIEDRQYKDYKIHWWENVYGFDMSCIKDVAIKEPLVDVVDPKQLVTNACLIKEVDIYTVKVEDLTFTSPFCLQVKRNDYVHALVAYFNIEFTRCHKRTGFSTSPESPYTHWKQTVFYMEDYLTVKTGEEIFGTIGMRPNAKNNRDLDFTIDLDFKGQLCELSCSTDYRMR
pIC50: −log10 of the molar value.
ASSAY_ENDPOINT: pIC50

CNCCN(C)Cc1ncccc1N1CCC(Oc2cc(C(F)(F)F)cc(C(F)(F)F)c2)CC1    6.30 to 7.30
CNCCN(C)Cc1ncccc1N1CCc2ccccc2C(C)C1 (stereo not drawn)    > 7.30
CNCCN(C)Cc1ncccc1[C@H]1CC[C@@]2(CC1)COC(C)(C)C2    > 7.30
CNCCN(C)Cc1ncccc1N1CCC(C)(COc2ccccc2)CC1    > 7.30
CNCCN(C)Cc1ccc(F)cc1C1CCc2cc(F)c(F)cc2CC1    > 7.30
CNCCN(C)Cc1ncccc1C1CCN(c2cccc3c2OCC3)CC1    > 7.30
CNCCN(C)Cc1ncccc1N1CCc2ccccc2C1    > 7.30
CNCCN(C)Cc1ncccc1C1CCN(c2ccccc2C)CC1    > 7.30

Could you tell me which pIC50 is on file for CCOC(=O)C1CCN(c2cccnc2CN(C)CCNC)CC1 ?
> 7.30

Also need CCOC(=O)c1cnc(Nc2ccc(CN(C)CCNC)c(C3CCN(c4cccc(C)c4)CC3)n2)[nH]1 , thanks.
> 7.30
